Tested on: A549
test-summary: Anticancer activity against human A549 cells after 48 hrs by SRB assay
Type: functional
experimental-conditions: A549, 48 h
measured-parameter: GI50 (nM)

Worked set:
>>> print(df.to_string())
                               given_smiles   u  quantitative_result
0  CCCCCCCCCCn1cc(Cn2c(-c3ccco3)nc3nc(C(F)(F)F)ccc3c2=O)nn1  nM                  200
1  O=c1c2ccc(C(F)(F)F)nc2nc(-c2ccccc2)n1Cc1cn(CCC(F)(F)C(F)(F)C(F)(F)C(F)(F)C(F)(F)C(F)(F)F)nn1  nM                  520
2  O=c1c2ccc(C(F)(F)F)nc2nc(-c2ccccc2)n1Cc1cn(-c2ccc([N+](=O)[O-])cc2)nn1  nM                  770

(P) O=c1c2ccc(C(F)(F)F)nc2ncn1Cc1cn(-c2ccc([N+](=O)[O-])cc2)nn1
(Q) COc1cc(-n2cc(COc3nc(-c4ccccc4)nc4nc(C(F)(F)F)ccc34)nn2)cc(OC)c1OC
Prompt: Lower value of GI50 belongs to which: P or Q ? Reply briefly: the label of your chosen item.
Completion: P
(P: 300 nM, Q: 4050 nM)

(1) CCCCCCCCn1cc(COc2nc(-c3ccccc3)nc3nc(C(F)(F)F)ccc23)nn1
(2) CCCCCCCCn1cc(Cn2c(CC)nc3nc(C(F)(F)F)ccc3c2=O)nn1
Prompt: Lower value of GI50 belongs to which: 1 or 2 ? Reply briefly: the label of your chosen item.
Completion: 2
(2: 2870 nM, 1: 5330 nM)

The origin of these recorded values is ChEMBL document CHEMBL3797087.
